Record form. Attribute: MIC Staphylococcus aureus. Fill in for each entry.
Tested on: Staphylococcus aureus ATCC29213
Test: microbe, parasite or virus in culture
Format: cell-based
Details: ATCC29213
Procedure: Bacteria (Escherichia coli ATCC 25922, Pseudomonas aeruginosa ATCC 27853, Staphylococcus aureus ATCC29213, Klebsiella pneumoniae JCM 1662, Enterobacter cloacae JCM 1232, Enterobacter aerogenes JCM 1235 and Staphylococcus epidermidis JCM 2414) were inoculated to Mueller-Hinton broth: MHB or LB medium, and cultured at a temperature and period suited for each strain. From the thus obtained colonies, each strain was inoculated to a fresh liquid medium and cultured for 16 to 20 hours. […]
No end group written: not given here.
// note: answer is a bare numeric in µg/mL

Quick one: MIC Staphylococcus aureus of KLIFLHRLKRELRKRLKRKLR-NH2 [SRP-13] ?
32

Data request, read-out MIC Staphylococcus aureus, for LKLIFLHRLKRMRKRLKRKL-NH2 [SRP-11]
16

Look up MIC Staphylococcus aureus for this substance: Ac-GRLKRMGERLKRKIQKWIRW-NH2 [SRP-19]
8

Hey, just so you know, these numbers are from patent US8470765B2.
